experiment: yeast display, Sf9 membrane polyspecificity reagent, FACS + sequencing; frameworks hold sequencing errors
result type: polyreactivity (PSR sort gate)

Check out these entries, answers already filled in.
>  <residue sequence>
QVQLVESGGGLVQAGGSLRLSCAASGFIFYYYTMVWYRQAPGKERELVAAIRTGGGTNYADSVKGRFTISRDNAKNTVYLQRNSLKPEDTAVYYCAKGRQGVSYLTGTYGGRDYWGQGTQVTVSS

>  <result type>
polyreactivity (PSR sort gate)

>  <result>
low polyreactivity

$$$$
>  <residue sequence>
QVQLVESGGGLVQAGGSLRLTCAASGRIFSYNAMGWYRQAPGKERELVAAITGGGSTNYADSVKGRFTISRDNAKNTVFLQMNSLKPEDTAVYYCAARSWSYKYWGQGTQVTVSS

>  <result type>
polyreactivity (PSR sort gate)

>  <result>
high polyreactivity

$$$$
>  <residue sequence>
QVQLVESGGGLVQAGGSLRVSCAASGSTFSQYAMGLYRQAPGKEREFVAVITLSVVSTSYADSVKGRFTFSRDNAKNTVYLQMNSQKPEDTAVYYCNKDSGVRGPGYGYWGQGTQVTVSS

>  <result type>
polyreactivity (PSR sort gate)

>  <result>
low polyreactivity

$$$$
>  <residue sequence>
QVQLVESGGGLVQAGGSLRLSCAASGRIFTGNAMGWYRQAPGTERELVAAITKSGGSTYYADSVKGRFTISRDNAKNTVYLQMNSLKPEDTAVYYCAATRYLHYVYKYGYWGQGTQVTVSS

>  <result type>
polyreactivity (PSR sort gate)

>  <result>
high polyreactivity

$$$$
>  <residue sequence>
QVQLVESGGGLVQAGGSLRLSCAASGSTFWGNAMGWYRPAPGKERELVAAISNGGSTNYADSVKGRFTISRDNAKNTVNLQMNSLKPEDTAVYYCAADGHTSNGVSLHGYWGQGTQVTVSS

>  <result type>
polyreactivity (PSR sort gate)

>  <result>
low polyreactivity

$$$$

GET /value?item= `QVQLVESGGGLVQAGGSLRLSCAASGSIFYKYTMGWYRQAPGKERELVAAITKSGGSTYYADSVKGRFTISRDNAKNTVYLQMNSLKPEDTAVYYCAAQIGRSATRGSYGYWGQGTQVTVSS` &field=polyreactivity (PSR sort gate) returns high polyreactivity

GET /value?item= `QVQLVESGGGLVQAGGSLRLSCAASGRIFKQYTMGWYRQAPGKERELVAAITSSGAGTFYADSVKGRFTISRDNAKNTVYLQMNSLKPEDTAVYYCAASWSRRDRGFDYWGQGTQVTVSS` &field=polyreactivity (PSR sort gate) returns high polyreactivity

GET /value?item= `QVQLVESGGGLVQAGGSLRLSCAASGRTLYPYAMGWYRQAPGKERELVAAISSTGGRTYYADSVKGRFTISRDNAKNTVYLQMNSLKPEDTAVYYCAAIYRAQYDYWGQGTQVTVSS` &field=polyreactivity (PSR sort gate) returns high polyreactivity

GET /value?item= `QVQLVESGGGLVQAGGSLRLSCAASGYIFSSYAMGWYRQAPGKERELVAAISWTGGTYYADSVKGRFTISRDNAKNTVYLQMNSLKPEDTAVYYCAVRYKRKGSGYRTNAYDYWGQGTQVTVSS` &field=polyreactivity (PSR sort gate) returns high polyreactivity

GET /value?item= `QVQLVESGGGLVQAGGSLRFSCADSGRILSLYAMGWSRQAPGKERELVASINWSDGSTYYADSVKGRFTISRDKAKNTVYLQMNSLKPEDTAVYYCNVDVRSYVAGYDYWGQGTLVTVSS` &field=polyreactivity (PSR sort gate) returns low polyreactivity

GET /value?item= `QVQLVESGGGLVQAGGSLRLSCAASGSIFGIYAMGWYRQAPGKERELVAAISSSGSTNYADSVKGRFTISRDNAKNTVYLQMNSLKPEDTAVYYCAAEQLSARWAYYYWGQGTQVTVSS` &field=polyreactivity (PSR sort gate) returns low polyreactivity

Origin of values: the nanobody polyreactivity screen of Harvey et al. (2022)
